Source of measurements: PubChem BioAssay (Tox21)

- EXPERIMENT NOTES: A CellTox Green Cytotoxicity Assay to monitor cytotoxicity in HEK293 cells - 24 hour (AID 1224875); note: nearly all actives have a fitted effect of over 45% in size
- MEASUREMENT CONTEXT: CellTox Green fluorescence; series mostly up to 76.8 µM
Records with an inconclusive call do not appear. Activity calls are given as the source filed them. Calls come from the whole dose curve; as a rule, active = well fitted activation curve with a large enough effect in the repeat runs; inconclusive = weak or mixed curves; inactive = flat fitted curve, though single readings scatter.
Pick one: 1 (yes) (active), 0 (no) (inactive)

>>> category_label("CC1=C(/C=C/C(C)=C/C=C/C(C)=C/C=O)C(C)(C)CCC1")
"1 (yes)"
>>> category_label("CCCCCCCC[P+](CCCCCCCC)(CCCCCCCC)CCCCCCCC")
"1 (yes)"
>>> category_label("ON=C1CCCC1")
"0 (no)"
>>> category_label("Cc1cccc(S(=O)(=O)O)c1C")
"0 (no)"
>>> category_label("COc1ccc(C(=O)/C(Br)=C\\C(=O)O)cc1")
"1 (yes)"

Q: Hello, I am checking results. What call was entered for Cc1cc2c(cc1C(F)(F)F)N(C(=O)Nc1ccc(Oc3cccnc3C)nc1)CC2 ?
A: 0 (no)
